Target under test: Sodium-dependent serotonin transporter (Rattus norvegicus)
Sequence (P31652 whole entry): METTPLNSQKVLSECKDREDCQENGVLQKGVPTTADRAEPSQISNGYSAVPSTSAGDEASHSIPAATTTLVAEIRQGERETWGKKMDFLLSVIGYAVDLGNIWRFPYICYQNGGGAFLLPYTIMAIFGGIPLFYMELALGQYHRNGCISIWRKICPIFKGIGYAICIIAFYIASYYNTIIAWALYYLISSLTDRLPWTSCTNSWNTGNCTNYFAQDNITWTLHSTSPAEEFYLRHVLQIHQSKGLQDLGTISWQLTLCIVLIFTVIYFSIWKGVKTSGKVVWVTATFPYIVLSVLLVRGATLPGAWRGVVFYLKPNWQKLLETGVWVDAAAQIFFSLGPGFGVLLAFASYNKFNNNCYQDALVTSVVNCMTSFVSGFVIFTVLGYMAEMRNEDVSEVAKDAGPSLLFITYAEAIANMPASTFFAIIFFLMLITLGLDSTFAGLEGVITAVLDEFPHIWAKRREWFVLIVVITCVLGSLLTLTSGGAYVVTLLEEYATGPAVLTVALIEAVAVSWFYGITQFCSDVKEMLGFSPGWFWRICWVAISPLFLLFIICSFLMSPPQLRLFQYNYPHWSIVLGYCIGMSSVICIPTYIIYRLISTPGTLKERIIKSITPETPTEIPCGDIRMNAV
Experimental details: Binding affinity at serotonin transporter from rat caudate-putamen tissue by [3H]WIN-35428 displacement.
Format: tissue-based
pKi: −log10 of the molar value.
Measured parameter: pKi

INSERT INTO results (compound, measured_parameter, observed) VALUES
  ('Fc1ccc(C(OCCC2CC3CCC(C2)N3Cc2ccccc2)c2ccc(F)cc2)cc1 (stereo not drawn)', 'pKi', 5.84),
  ('c1ccc(CN2C3CCC2CC(CCOC(c2ccccc2)c2ccccc2)C3)cc1 (stereo not drawn)', 'pKi', 5.32),
  ('Clc1ccc(C(OCCC2CC3CCC(C2)N3Cc2ccccc2)c2ccc(Cl)cc2)cc1 (stereo not drawn)', 'pKi', 6.09);

====

List of pKi tested on Sodium-dependent dopamine transporter (Rattus norvegicus).
Sequence (P23977 whole entry): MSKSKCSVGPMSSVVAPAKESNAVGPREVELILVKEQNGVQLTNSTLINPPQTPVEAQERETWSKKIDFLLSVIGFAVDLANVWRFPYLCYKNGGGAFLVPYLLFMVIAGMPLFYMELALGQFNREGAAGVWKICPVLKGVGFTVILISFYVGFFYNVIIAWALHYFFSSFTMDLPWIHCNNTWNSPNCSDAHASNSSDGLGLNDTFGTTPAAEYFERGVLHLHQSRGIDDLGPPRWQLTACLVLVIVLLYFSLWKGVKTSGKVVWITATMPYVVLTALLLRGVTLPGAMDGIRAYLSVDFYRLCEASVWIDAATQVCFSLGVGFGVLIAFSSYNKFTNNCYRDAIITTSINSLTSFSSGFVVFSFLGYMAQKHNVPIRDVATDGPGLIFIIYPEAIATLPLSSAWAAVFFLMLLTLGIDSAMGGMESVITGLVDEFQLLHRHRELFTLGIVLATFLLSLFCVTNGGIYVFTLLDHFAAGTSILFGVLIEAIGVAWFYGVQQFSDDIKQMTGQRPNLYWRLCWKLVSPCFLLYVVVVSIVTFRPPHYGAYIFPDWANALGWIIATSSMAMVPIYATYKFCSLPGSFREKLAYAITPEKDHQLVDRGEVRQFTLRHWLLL
pKi: −log10 of the molar value.
Measured parameter: pKi

INSERT INTO measurements (compound, target_under_test, observed) VALUES
  ('Fc1ccc(C(OCC=C2CC3CCC(C2)N3CCCc2ccccc2)c2ccc(F)cc2)cc1', 'Sodium-dependent dopamine transporter (Rattus norvegicus)', 8.43),
  ('Clc1ccc(C(OCCC2CC3CCC(C2)N3Cc2ccccc2)c2ccc(Cl)cc2)cc1 (centres undefined)', 'Sodium-dependent dopamine transporter (Rattus norvegicus)', 7.04),
  ('Clc1ccc(C(OCCC2CC3CCC(C2)N3CCCc2ccccc2)c2ccc(Cl)cc2)cc1 (centres undefined)', 'Sodium-dependent dopamine transporter (Rattus norvegicus)', 7.30),
  ('Oc1ccc(CN2C3CCC2CC(CCOC(c2ccc(F)cc2)c2ccc(F)cc2)C3)cc1 (centres undefined)', 'Sodium-dependent dopamine transporter (Rattus norvegicus)', 7.52),
  ('Clc1ccc(C(OCCC2CC3CCC(C2)N3Cc2ccccc2)c2ccccc2)cc1 (centres undefined)', 'Sodium-dependent dopamine transporter (Rattus norvegicus)', 7.09),
  ('c1ccc(CCCN2[C@@H]3CC[C@H]2C[C@@H](CCOC(c2ccccc2)c2ccccc2)C3)cc1', 'Sodium-dependent dopamine transporter (Rattus norvegicus)', 7.74),
  ('Clc1ccc(C(OCCC2CC3CCC(C2)N3CCCc2ccccc2)c2ccccc2)cc1 (centres undefined)', 'Sodium-dependent dopamine transporter (Rattus norvegicus)', 7.52),
  ('Fc1ccc(C(OCC[C@H]2C[C@H]3CC[C@@H](C2)N3CCCc2ccccc2)c2ccc(F)cc2)cc1', 'Sodium-dependent dopamine transporter (Rattus norvegicus)', 8.13),
  ('CN1C2CCC1CC(CCOC(c1ccc(F)cc1)c1ccc(F)cc1)C2 (centres undefined)', 'Sodium-dependent dopamine transporter (Rattus norvegicus)', 7.51);

====

The compounds below have reported pKi for Sodium-dependent dopamine transporter (Rattus norvegicus).
pKi: −log10 of the molar value.
Measured parameter: pKi

INSERT INTO measurements (compound, observed) VALUES
  ('Oc1cccc(CN2C3CCC2CC(CCOC(c2ccc(F)cc2)c2ccc(F)cc2)C3)c1 (stereo not given)', 7.70),
  ('C(COC(c1ccccc1)c1ccccc1)=C1CC2CCC(C1)N2Cc1ccccc1', 7.32),
  ('Fc1ccc(C(OCCC2CC3CCC(C2)N3Cc2ccccc2)c2ccc(F)cc2)cc1 (stereo not given)', 8.24),
  ('CN1C2CCC1CC(CCOC(c1ccc(Cl)cc1)c1ccc(Cl)cc1)C2 (stereo not given)', 7.74),
  ('CN1[C@@H]2CC[C@H]1C[C@@H](CCOC(c1ccccc1)c1ccccc1)C2', 7.24);
